tested on: SK-BR-3; test: Cytotoxicity against human SKBR3 cells after 48 hrs by SRB assay; assay type: functional; details: SK-BR-3, 48 h, read-out: LC50 (the source's name)
Readout Name: CC50 (µM)
Your answer is read as µM, so omit the unit and give the number.

Retrieve CC50 on SK-BR-3; query C/C=C1\NC(=O)[C@H](Cc2ccccc2)NC(=O)[C@@H](C(C)C)NC(=O)[C@@H]([C@H](C)CC)NC(=O)[C@H](NC(=O)[C@H](NC(=O)[C@H](CCCN)NC(=O)[C@H]2CCCN2C(=O)[C@H](NC(=O)[C@@H](NC(=O)[C@@H](NC(=O)[C@H](NC(=O)CCCCC(C)=O)C(C)C)[C@@H](C)O)C(C)C)C(C)C)[C@H](C)CC)[C@H](C)OC(=O)[C@H](C(C)C)NC1=O
1.05

Write down the reported CC50 (system: SK-BR-3) of C/C=C1\NC(=O)[C@H](Cc2ccccc2)NC(=O)[C@@H](C(C)C)NC(=O)[C@@H]([C@H](C)CC)NC(=O)[C@H](NC(=O)[C@H](NC(=O)[C@H](CCCC[N+](C)(C)C)NC(=O)[C@H]2CCCN2C(=O)[C@H](NC(=O)[C@@H](NC(=O)[C@@H](NC(=O)[C@H](NC(=O)CC[C@@H](C)CC)C(C)C)[C@@H](C)O)C(C)C)C(C)C)[C@H](C)CC)[C@H](C)OC(=O)[C@H](C(C)C)NC1=O
0.369

For SK-BR-3, give the measured CC50 of the entry C/C=C1\NC(=O)[C@H](Cc2ccccc2)NC(=O)[C@@H](C(C)C)NC(=O)[C@@H]([C@H](C)CC)NC(=O)[C@H](NC(=O)[C@H](NC(=O)[C@H](CCCN)NC(=O)[C@H]2CCCN2C(=O)[C@H](NC(=O)[C@@H](NC(=O)[C@@H](NC(=O)[C@H](NC(=O)C2CCC(C)CC2)C(C)C)[C@@H](C)O)C(C)C)C(C)C)[C@H](C)CC)[C@H](C)OC(=O)[C@H](C(C)C)NC1=O (stereo not given in full)
1.03

Print SK-BR-3 CC50 for C/C=C1\NC(=O)[C@@H]2Cc3ccccc3CN2C(=O)[C@@H](C(C)C)NC(=O)[C@@H]([C@H](C)CC)NC(=O)[C@H](NC(=O)[C@H](NC(=O)[C@H](CCCN)NC(=O)[C@H]2CCCN2C(=O)[C@H](NC(=O)[C@@H](NC(=O)[C@@H](NC(=O)[C@H](NC(=O)CC[C@@H](C)CC)C(C)C)[C@@H](C)O)C(C)C)C(C)C)[C@H](C)CC)[C@H](C)OC(=O)[C@H](C(C)C)NC1=O .
0.296

# lookup: SK-BR-3 CC50, key = C/C=C1\NC(=O)[C@H](Cc2ccccc2)NC(=O)[C@@H](C(C)C)NC(=O)[C@@H]([C@H](C)CC)NC(=O)[C@H](NC(=O)[C@H](NC(=O)[C@H](CCCN)NC(=O)[C@H]2CCCN2C(=O)[C@H](NC(=O)[C@@H](NC(=O)[C@@H](NC(=O)[C@H](NC(=O)CCCC(C)C)C(C)C)[C@@H](C)O)C(C)C)C(C)C)[C@H](C)CC)CNC(=O)[C@H](C(C)C)NC1=O
2.81

###

assay: Cytotoxicity against human IGROV-ET cells after 48 hrs by SRB assay; assay type: functional; conditions: read-out: LC50 (the source's name)
Readout Name: CC50 (nM)
State the answer as a number, implicitly in nM.

Provide CC50 value for the following molecule: C/C=C1\NC(=O)[C@H](Cc2ccccc2)NC(=O)[C@@H](C(C)C)NC(=O)[C@@H]([C@H](C)CC)NC(=O)[C@H](NC(=O)[C@H](NC(=O)[C@H](CCCN)NC(=O)[C@H]2CCCN2C(=O)[C@H](NC(=O)[C@@H](NC(=O)[C@@H]2CCCN2C(=O)[C@H](NC(=O)CCCC(C)C)C(C)C)C(C)C)C(C)C)[C@H](C)CC)[C@H](C)OC(=O)[C@H](C(C)C)NC1=O
920

Report CC50 for C/C=C1\NC(=O)[C@H](Cc2ccccc2)NC(=O)[C@@H](C(C)C)NC(=O)[C@@H]([C@H](C)CC)NC(=O)[C@H](NC(=O)[C@H](NC(=O)[C@H](CCCN)NC(=O)[C@H]2CCCN2C(=O)[C@H](NC(=O)CCCCCCCCCCCCC)C(C)C)[C@H](C)CC)[C@H](C)OC(=O)[C@H](C(C)C)NC1=O
5190

Look up CC50 of C/C=C1\NC(=O)[C@H](Cc2ccc([N+](=O)[O-])cc2)NC(=O)[C@@H](C(C)C)NC(=O)[C@@H]([C@H](C)CC)NC(=O)[C@H](NC(=O)[C@H](NC(=O)[C@H](CCCN)NC(=O)[C@H]2CCCN2C(=O)[C@H](NC(=O)[C@@H](NC(=O)[C@@H](NC(=O)[C@H](NC(=O)CC[C@@H](C)CC)C(C)C)[C@@H](C)O)C(C)C)C(C)C)[C@H](C)CC)[C@H](C)OC(=O)[C@H](C(C)C)NC1=O and report it.
636

###

tested on: PANC-1; assay: Cytotoxicity against human PANC1 cells after 48 hrs by SRB assay; assay type: functional; settings: PANC-1, 48 h, read-out: LC50 (the source's name)
Readout Name: CC50 (nM)
Just the number in nM, nothing appended.

Quote CC50 reported for C/C=C1\NC(=O)[C@H](Cc2ccccc2)NC(=O)[C@@H](C(C)C)NC(=O)[C@@H]([C@H](C)CC)NC(=O)[C@H](NC(=O)[C@H](NC(=O)[C@H](CCCN)NC(=O)[C@H]2CCCN2C(=O)[C@H](NC(=O)[C@@H](NC(=O)[C@@H](NC(=O)[C@H](NC(=O)CCCNC(=N)N)C(C)C)[C@@H](C)O)C(C)C)C(C)C)[C@H](C)CC)[C@H](C)OC(=O)[C@H](C(C)C)NC1=O please.
2510

For the compound CC[C@@H](C)[C@@H](NC(=O)[C@H](CCCN)NC(=O)[C@H]1CCCN1C(=O)[C@H](NC(=O)[C@@H](NC(=O)[C@@H](NC(=O)[C@H](NC(=O)CCCC(C)C)C(C)C)[C@@H](C)O)C(C)C)C(C)C)C(=O)N[C@H]1C(=O)N[C@H]([C@H](C)CC)C(=O)N[C@H](C(C)C)C(=O)N[C@@H](Cc2ccccc2)C(=O)NC(C)(C)C(=O)N[C@@H](C(C)C)C(=O)O[C@H]1C , report CC50.
1770

Look up and state reported CC50 for C/C=C1\NC(=O)[C@H](Cc2ccccc2)NC(=O)[C@@H](C(C)C)NC(=O)[C@@H]([C@H](C)CC)NC(=O)[C@H](NC(=O)[C@H](NC(=O)[C@H](CCCN)NC(=O)[C@H]2CCCN2C(=O)[C@H](NC(=O)[C@@H](NC(=O)[C@@H](NC(=O)[C@H](NC(=O)CCCCCCCCCCCCCCC)C(C)C)[C@@H](C)O)C(C)C)C(C)C)[C@H](C)CC)[C@H](C)OC(=O)[C@H](C(C)C)NC1=O
1300

###

system: HT-29; test: Cytotoxicity against human HT29 cells after 48 hrs by SRB assay; assay type: functional, cell-based; details: Homo sapiens, HT-29, 48 h; read-out: LC50 (the source's name)
Give measured CC50 for each item. Keep answers brief.
Form entry: value (nM) — number only.

Provide one value: measured CC50 of C/C=C1\NC(=O)[C@H](Cc2ccccc2)NC(=O)[C@@H](C(C)C)NC(=O)[C@@H]([C@H](C)CC)NC(=O)[C@H](NC(=O)[C@H](NC(=O)[C@H](CCCN)NC(=O)[C@H]2CCCN2C(=O)[C@H](NC(=O)[C@@H](NC(=O)[C@@H](NC(=O)[C@H](NC(=O)CCCCCCCCCCCCCCCCCCC)C(C)C)[C@@H](C)O)C(C)C)C(C)C)[C@H](C)CC)[C@H](C)OC(=O)[C@H](C(C)C)NC1=O
877

Identify the reported CC50 for the following entry. C/C=C1\NC(=O)[C@H](Cc2ccccc2)NC(=O)[C@@H](C(C)C)NC(=O)[C@@H]([C@H](C)CC)NC(=O)[C@H](NC(=O)[C@H](NC(=O)[C@H](CCCN)NC(=O)[C@H]2CCCN2C(=O)[C@H](NC(=O)[C@@H](NC(=O)[C@@H]2CCCN2C(=O)[C@H](NC(=O)CCCC(C)C)C(C)C)C(C)C)C(C)C)[C@H](C)CC)[C@H](C)OC(=O)[C@H](C(C)C)NC1=O
4310

Give me measured CC50, please, for this compound: C/C=C1\NC(=O)[C@H](Cc2ccccc2)NC(=O)[C@@H](C(C)C)NC(=O)[C@@H]([C@H](C)CC)NC(=O)[C@H](NC(=O)[C@H](NC(=O)[C@H](CCCN)NC(=O)[C@H]2CCCN2C(=O)[C@H](NC(=O)[C@@H](NC(=O)[C@H](CCCN)NC(=O)[C@H](NC(=O)CCCC(C)C)C(C)C)C(C)C)C(C)C)[C@H](C)CC)[C@H](C)OC(=O)[C@H](C(C)C)NC1=O
446

Indicate the recorded CC50 value for this compound: C/C=C1\NC(=O)[C@H](Cc2ccccc2)NC(=O)[C@@H](C(C)C)NC(=O)[C@@H]([C@H](C)CC)NC(=O)[C@H](NC(=O)[C@H](NC(=O)[C@H](CCCN)NC(=O)[C@H]2CCCN2C(=O)[C@H](NC(=O)[C@@H](NC(=O)[C@@H](NC(=O)[C@@H](CCC(N)=O)NC(=O)CCCC(C)C)[C@@H](C)O)C(C)C)C(C)C)[C@H](C)CC)[C@H](C)OC(=O)[C@H](C(C)C)NC1=O
2870
